- MEASURED_TARGET: recombinant DYRK1A kinase (Homo sapiens (Human), UniProt Q13627)
- TEST_DESCRIPTION: DYRK1A kinase assay (Ser/Thr 18 peptide Z-lyte FRET assay)
- RUN_CONDITIONS: DYRK1A 0.25 μg/mL, ATP 15 μM, Ser/Thr peptide 18 4 μM; one hour at room temperature; 11-point dose-response, duplicate
# label = TRUE if IC50 < 3 nM else FALSE

Find out if reported IC50 for CNc1nc(N[C@H]2CCN(C(C)=O)C[C@H]2F)nn2ccc(-c3ccc4ncn(CC(F)F)c4n3)c12 [Compound 1012] is less than 3 nM
TRUE

Find out if reported IC50 for CNc1nc(N[C@H]2CCN(C3CC3)CC2(F)F)nn2ccc(-c3ccc4nc(C)n(CC(F)F)c4n3)c12 [Compound 387] is less than 3 nM
FALSE

Find out if reported IC50 for Nc1nc(N[C@@H]2CCN(C3COC3)CC2(F)F)nn2ccc(-c3ccc4nnn(CC(F)F)c4n3)c12 [Compound 854] is less than 3 nM
TRUE

Find out if reported IC50 for CNc1nc(NC2CCC(F)(F)CC2)nn2ccc(-c3ccc4ncn(CC(F)(F)F)c4n3)c12 [Compound 1014] is less than 3 nM
FALSE

Find out if reported IC50 for Cc1nc2ccc(-c3ccn4nc(N[C@H]5CC[C@](C)(O)CC5)nc(N)c34)nc2n1CC(F)(F)F [Compound 754] is less than 3 nM
TRUE

Find out if reported IC50 for [2H]C([2H])([2H])Nc1nc(N[C@@H]2CCN(C)CC2(F)F)nn2ccc(-c3ccc4nc(C)n(CC(F)F)c4n3)c12 [Compound 382] is less than 3 nM
FALSE

Find out if reported IC50 for CNc1nc(N[C@@H]2CCN(C(C)=O)CC2(F)F)nn2ccc(-c3ccc4nnn(CC(F)F)c4n3)c12 [Compound 1029] is less than 3 nM
TRUE

Find out if reported IC50 for CNc1nc(N[C@H]2CN(C)C[C@H]2F)nn2ccc(-c3ccc4nc(C)n(CC(F)F)c4n3)c12 [Compound 197] is less than 3 nM
TRUE

Find out if reported IC50 for CNc1nc(N[C@@H]2CCN(C3CC(F)(F)C3)C[C@@H]2F)nn2ccc(-c3ccc4nc(C)n(CC(F)F)c4n3)c12 [Compound 380] is less than 3 nM
FALSE

Find out if reported IC50 for Nc1nc(N[C@@H]2CN(C3COC3)C[C@@H]2F)nn2ccc(-c3ccc4ncn(CC(F)F)c4n3)c12 [Compound 988] is less than 3 nM
TRUE

Find out if reported IC50 for CNc1nc(N[C@H]2CC[C@@H](OC)CC2)nn2ccc(-c3ccc4nc(C)n(CC(F)F)c4n3)c12 [Compound 183] is less than 3 nM
FALSE

Find out if reported IC50 for CC(=O)N1C[C@H](F)[C@H](Nc2nc(N)c3c(-c4ccc5nc(C)n(CC(F)F)c5n4)ccn3n2)C1 [Compound 700] is less than 3 nM
TRUE

---

- MEASURED_TARGET: recombinant DYRK1A kinase (Homo sapiens (Human))
- TEST_DESCRIPTION: DYRK1A kinase assay (Ser/Thr 18 peptide Z-lyte FRET assay)
- RUN_CONDITIONS: DYRK1A 0.25 μg/mL, ATP 15 μM, Ser/Thr peptide 18 4 μM; one hour at room temperature; 11-point dose-response, duplicate
RECORDED_ENDPOINT: IC50 (nM)
Answer in nM, number only, no unit symbol.

// Input: CNc1nc(NC2CCN(C3COC3)CC2)nn2ccc(-c3cnc4nc(C)n(C(C)C)c4c3)c12 . Output its IC50 only.
744

// Input: CC(=O)N1CC[C@@H](Nc2nc(N)c3c(-c4ccc5nc(C)n(CC(F)F)c5n4)ccn3n2)C(F)(F)C1 . Output its IC50 only.
0.4

// Input: CC(=O)N1CC[C@@H](Nc2nc(N)c3c(-c4ccc5nnn(CC(F)F)c5n4)ccn3n2)C(F)(F)C1 . Output its IC50 only.
1.5

// Input: CNc1nc(N[C@H]2CCN(C(C)=O)C[C@H]2F)nn2ccc(-c3ccc4ncn(CCF)c4n3)c12 . Output its IC50 only.
1.1

// Input: CCNc1nc(N[C@@H]2CCNCC2(F)F)nn2ccc(-c3ccc4nc(C)n(CC(F)F)c4n3)c12 . Output its IC50 only.
3.1

// Input: CNc1nc(N[C@@H]2CCN(C)CC2(F)F)nn2ccc(-c3ccc4nc(C)n(CC(F)F)c4n3)c12 . Output its IC50 only.
1.1

// Input: CNc1nc(N[C@H]2CN(C3COC3)C[C@H]2F)nn2ccc(-c3ccc4nc(C)n(CC(F)F)c4n3)c12 . Output its IC50 only.
2.4

// Input: [2H]C([2H])([2H])Nc1nc(N[C@@H]2CCN(C3COC3)CC2(F)F)nn2ccc(-c3ccc4nc(C)n(CC(F)F)c4n3)c12 . Output its IC50 only.
4.7

// Input: Cc1nc2ccc(-c3ccn4nc(N[C@@H]5CN(C6COC6)C[C@@H]5F)nc(N)c34)nc2n1CC(F)(F)F . Output its IC50 only.
1.4

// Input: CNc1nc(NC2C3CCC2CN(C)C3)nn2ccc(-c3ccc4nc(C)n(CC(F)F)c4n3)c12 (centres unmarked) . Output its IC50 only.
2.8

// Input: CNc1nc(N[C@H]2CC[C@@](C)(O)CC2)nn2ccc(-c3ccc4nc(C)n(CC(F)F)c4n3)c12 . Output its IC50 only.
2.2

// Input: CN1CC[C@@H](Nc2nc(N)c3c(-c4ccc5ncn(CCF)c5n4)ccn3n2)C(F)(F)C1 . Output its IC50 only.
1.5

// Input: Cc1nc2ccc(-c3ccn4nc(N[C@@H]5CCNCC5(F)F)nc(NC5COC5)c34)nc2n1CC(F)F . Output its IC50 only.
7830

// Input: CCN1C[C@@H](Nc2nc(NC)c3c(-c4ccc5nc(C)n(CC(F)F)c5n4)ccn3n2)C(F)(F)C1 . Output its IC50 only.
1.4

// Input: Nc1nc(N[C@H]2CCN(C3COC3)C[C@H]2F)nn2ccc(-c3ccc4ncn(CC(F)F)c4n3)c12 . Output its IC50 only.
0.6

// Input: CNc1nc(N[C@@H]2CN(C(C)=O)C[C@@H]2F)nn2ccc(-c3ccc4nnn(CC(F)F)c4n3)c12 . Output its IC50 only.
0.3

// Input: CNc1nc(N[C@H]2CC[C@@H](OCCOC)CC2)nn2ccc(-c3ccc4nc(C)n(CC(F)F)c4n3)c12 . Output its IC50 only.
2.4

// Input: CNc1nc(NC2(C)CCOCC2)nn2ccc(-c3ccc4nc(C)n(CC(F)F)c4n3)c12 . Output its IC50 only.
14.2

// Input: CNc1nc(N[C@@H]2CCN(C3COC3)CC2(F)F)nn2ccc(-c3ccc4ncn(CC(F)(F)F)c4n3)c12 . Output its IC50 only.
1.7

// Input: CNc1nc(N[C@H]2CC[C@](C)(O)CC2)nn2ccc(-c3ccc4nnn(CC(F)(F)F)c4n3)c12 . Output its IC50 only.
4

// Input: CNc1nc(N[C@H]2CCN(C(C)=O)C[C@H]2F)nn2ccc(-c3ccc4nnn(CC(F)(F)F)c4n3)c12 . Output its IC50 only.
2.8

// Input: Cc1nc2ccc(-c3ccn4nc(N[C@@H]5CCN(C6COC6)CC5(F)F)nc(N)c34)nc2n1CC(F)(F)F . Output its IC50 only.
4.8

// Input: CNc1nc(N[C@@H]2CCNCC2(F)F)nn2ccc(-c3ccn4nccc4n3)c12 . Output its IC50 only.
2.2

// Input: CNc1nc(NC2CCC3(CC2)CN(C(C)=O)C3)nn2ccc(-c3ccc4nc(C)n(CC(F)F)c4n3)c12 . Output its IC50 only.
0.2

// Input: CNc1nc(N[C@@H]2CCN(C3COC3)CC2(F)F)nn2ccc(-c3ccc4nc(C)n(CC(F)F)c4n3)c12 . Output its IC50 only.
0.8

// Input: CNc1nc(N[C@@H]2CCN(C)CC2(F)F)nn2ccc(-c3ccc4ncn(CCF)c4n3)c12 . Output its IC50 only.
1.1

// Input: CNc1nc(N[C@H]2CCN(C3COC3)C[C@H]2F)nn2ccc(-c3ccc4nnn(CC(F)F)c4n3)c12 . Output its IC50 only.
1.3

// Input: Cc1nc2ccc(-c3ccn4nc(N[C@H]5CC[C@](C)(O)CC5)nc(N)c34)nc2n1CC(F)F . Output its IC50 only.
0.9

// Input: CNc1nc(N[C@H]2CC[C@@](C)(O)CC2)nn2ccc(-c3ccc4nc(C)n(CC(F)(F)F)c4n3)c12 . Output its IC50 only.
0.7

Where do the numbers come from? From patent US20240199649A1.
